biological target: hERG (Homo sapiens); construct: purchased Invitrogen PV5365; assay: hERG inhibition test (Predictor hERG Fluorescence Polarization assay kit); format: binding; settings: probe kit Tracer (fluorescent hERG ligand), hERG % inhibition at 10 uM, relative to E-4031 and solvent control
recorded_endpoint: inhibition at 2.5 h, 10 µM
Report the figure along with its unit, number first.

[[record]]
compound = "O=C(O)c1ccc2nc(Cc3ccc(-c4cccc(OCc5ccc(F)c(F)c5)n4)c(F)c3)n(C[C@@H]3CCO3)c2c1"
endpoint_value = "-19.5%"

[[record]]
compound = "COCCn1c(Cc2ccc(-c3cccc(OCc4ccc(C#N)cc4F)n3)cc2C)nc2ccc(C(=O)O)cc21"
endpoint_value = "36.5%"

[[record]]
compound = "N#Cc1ccc(COc2cccc(-c3ccc(Cc4nc5ccc(C(=O)O)cc5n4CC4CCCO4)cc3F)n2)c(F)c1 (stereo not shown)"
endpoint_value = "-6.76%"

[[record]]
compound = "COc1cccc(COc2cccc(-c3ccc(Cc4nc5ccc(C(=O)O)cc5n4CC4CCCO4)c(F)c3)n2)c1 (stereo not shown)"
endpoint_value = "-43.5%"

[[record]]
compound = "COCCn1c(Cc2ccc(-c3cccc(OCc4ccc(C#N)cc4F)n3)cc2F)nc2ccc(C(=O)O)cc21"
endpoint_value = "18.9%"

[[record]]
compound = "COCCn1c(Cc2ccc(-c3cccc(OCc4ccc(Cl)cc4F)n3)cc2C)nc2ccc(C(=O)O)cc21"
endpoint_value = "18.7%"


Query: What value of inhibition at 2.5 h, 10 µM has been reported for the following compound? N#Cc1ccc(COc2cccc(-c3ccc(Cc4nc5ccc(C(=O)O)cc5n4C[C@@H]4CCO4)cc3F)n2)cc1
Response: 20.7%

----------
biological target: human GLP-1 receptor (Homo sapiens, UniProt P43220); construct: host or cells: CHO-K1; assay: cAMP activity test (cAMP dynamic HTRF kit) in CHO-K1/GLP-1 receptor-expressing cells; type: cell-based; conditions: cAMP activity, CHO-K1/GLP-1 receptor-expressing cells; read-out: EC50
Sequence (P43220 24-463): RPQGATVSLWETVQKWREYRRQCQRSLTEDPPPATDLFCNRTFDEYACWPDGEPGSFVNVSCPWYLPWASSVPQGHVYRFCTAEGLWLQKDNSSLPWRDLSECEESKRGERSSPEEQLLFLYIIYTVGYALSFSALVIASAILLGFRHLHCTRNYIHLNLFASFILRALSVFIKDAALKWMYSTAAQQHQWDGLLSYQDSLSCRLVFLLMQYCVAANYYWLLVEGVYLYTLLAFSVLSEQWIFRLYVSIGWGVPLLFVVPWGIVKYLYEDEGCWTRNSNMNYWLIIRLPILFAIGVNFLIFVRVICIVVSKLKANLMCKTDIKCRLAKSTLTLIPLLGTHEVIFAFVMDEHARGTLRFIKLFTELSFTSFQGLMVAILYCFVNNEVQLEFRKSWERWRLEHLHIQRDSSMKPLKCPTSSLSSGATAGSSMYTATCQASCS
pEC50: −log10 of the molar value.
Returns one of 1 (yes) or 0 (no); 1 (yes) when pEC50 is >= 7.

# example entries with known answers
[[record]]
molecule = "N#Cc1ccc(COc2cccc(-c3ccc(Cc4nc5ccc(C(=O)O)cc5n4CCF)c(F)c3)c2)c(F)c1"
class_name = "0 (no)"

[[record]]
molecule = "O=C(O)c1ccc2nc(Cc3ccc(-c4cccc(OCc5ccc(Cl)cc5F)n4)c(F)c3)n(C[C@@H]3CCO3)c2c1"
class_name = "1 (yes)"

[[record]]
molecule = "N#Cc1ccc(COc2cccc(-c3cc(F)c(Cc4nc5ccc(C(=O)O)cc5n4C[C@@H]4CCO4)c(F)c3)n2)c(F)c1"
class_name = "1 (yes)"

[[record]]
molecule = "O=C(O)c1ccc2nc(Cn3ccc(-c4cccc(OCc5ccc(Cl)cc5F)n4)cc3=O)n(C[C@@H]3CCO3)c2c1"
class_name = "1 (yes)"

[[record]]
molecule = "O=C(O)c1ccc2nc(Cc3ccc(-c4cccc(OCc5ccc(Cl)cc5F)n4)cc3F)n(C[C@H]3CCCO3)c2c1"
class_name = "1 (yes)"


Kindly consider the entry below.
Query: // inclusive: pEC50 at least 7? input: O=C(O)c1ccc2nc(Cn3ccc(-c4cccc(OCc5ccc(Cl)cc5F)n4)cc3=O)n(CC3CCCO3)c2c1 (stereo not shown)
Response: 1 (yes)

----------
inhibition at 2.5 h, 10 µM for assorted compounds
molecular target: hERG (Homo sapiens, UniProt Q12809); construct: purchased Invitrogen PV5365; test: hERG inhibition test (Predictor hERG Fluorescence Polarization assay kit); format: binding; conditions: probe kit Tracer (fluorescent hERG ligand), hERG % inhibition at 10 uM, relative to E-4031 and solvent control
Sequence (Q12809 whole entry): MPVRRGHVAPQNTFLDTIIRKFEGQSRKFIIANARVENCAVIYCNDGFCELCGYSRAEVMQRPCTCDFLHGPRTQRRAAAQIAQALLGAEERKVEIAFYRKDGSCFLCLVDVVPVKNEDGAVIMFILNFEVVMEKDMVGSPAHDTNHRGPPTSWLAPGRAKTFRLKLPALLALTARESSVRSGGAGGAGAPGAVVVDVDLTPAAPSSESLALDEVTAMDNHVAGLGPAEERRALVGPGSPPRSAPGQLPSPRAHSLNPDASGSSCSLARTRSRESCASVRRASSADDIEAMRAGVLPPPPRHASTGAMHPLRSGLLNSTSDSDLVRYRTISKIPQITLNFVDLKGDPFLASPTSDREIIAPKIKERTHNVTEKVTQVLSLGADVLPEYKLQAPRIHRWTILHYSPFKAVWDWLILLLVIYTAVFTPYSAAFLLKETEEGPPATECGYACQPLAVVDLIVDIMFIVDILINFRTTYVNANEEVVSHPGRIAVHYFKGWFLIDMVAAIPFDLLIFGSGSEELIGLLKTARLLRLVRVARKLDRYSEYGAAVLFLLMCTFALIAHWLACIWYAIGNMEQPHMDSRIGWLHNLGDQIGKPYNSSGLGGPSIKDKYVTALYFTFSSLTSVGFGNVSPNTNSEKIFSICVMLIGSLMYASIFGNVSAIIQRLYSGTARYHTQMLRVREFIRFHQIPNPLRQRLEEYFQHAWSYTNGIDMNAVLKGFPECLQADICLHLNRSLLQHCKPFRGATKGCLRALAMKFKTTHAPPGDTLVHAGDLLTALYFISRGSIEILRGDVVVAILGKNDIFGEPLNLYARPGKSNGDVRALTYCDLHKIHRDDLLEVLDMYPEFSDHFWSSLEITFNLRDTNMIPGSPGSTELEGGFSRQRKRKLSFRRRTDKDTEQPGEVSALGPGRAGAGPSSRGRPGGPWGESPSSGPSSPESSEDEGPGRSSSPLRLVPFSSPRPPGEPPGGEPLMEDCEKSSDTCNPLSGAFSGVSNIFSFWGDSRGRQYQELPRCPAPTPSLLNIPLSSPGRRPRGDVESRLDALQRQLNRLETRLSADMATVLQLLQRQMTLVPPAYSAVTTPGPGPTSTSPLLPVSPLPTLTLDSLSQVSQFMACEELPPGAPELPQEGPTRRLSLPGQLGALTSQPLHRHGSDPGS
Write the number in % without appending the unit.

[[record]]
compound = "N#Cc1ccc(COc2cccc(-c3ccc(Cc4nc5ccc(C(=O)O)cc5n4C[C@@H]4CCO4)c(F)c3)n2)c(F)c1"
endpoint_value = -14.6


Query: Value lookup for inhibition at 2.5 h, 10 µM; key = O=C(O)c1ccc2nc(Cc3ccc(-c4cccc(OCc5ccc(Cl)cc5F)n4)c(F)c3F)n(C[C@@H]3CCO3)c2c1
Response: 7.24

Query: Next record, please: O=C(O)c1ccc2nc(Cc3ccc(-c4cccc(OCc5ccc(Cl)cc5F)c4)cc3)n(CC3CCCO3)c2c1 (centres unmarked)
Response: -7.68

Query: Please do the same for O=C(O)c1ccc2nc(Cc3c(F)cc(-c4cccc(OCc5ccc(Cl)cc5F)n4)cc3F)n(CC3CCCO3)c2c1 (centres unmarked) as well.
Response: 10.8

Query: Param item: N#Cc1ccc(COc2cc(-c3ccc(Cc4nc5ccc(C(=O)O)cc5n4CC4CCCO4)cc3F)ccc2F)c(F)c1 (centres unmarked)
Response: 8.9

Query: Now consider O=C(O)c1ccc2nc(Cc3ccc(-c4cccc(OCc5ccc(Cl)cc5F)n4)cc3F)n(C[C@@H]3CCO3)c2c1 and answer again.
Response: -17.9

Query: Also O=C(O)c1ccc2nc(Cc3cc(F)c(-c4cccc(OCc5ccc(Cl)cc5F)n4)cc3F)n(C[C@@H]3CCCO3)c2c1 ?
Response: 5.86

Query: Continue with O=C(O)c1ccc2nc(Cc3ccc(-c4cccc(OCc5ccc(Cl)cc5)n4)c(F)c3)n(CC3CCCO3)c2c1 (centres unmarked)
Response: 18.9

----------
target: human GLP-1 receptor (Homo sapiens, UniProt P43220); construct: host or cells: CHO-K1; test: cAMP activity test (cAMP dynamic HTRF kit) in CHO-K1/GLP-1 receptor-expressing cells; assay type: cell-based; conditions: cAMP activity, CHO-K1/GLP-1 receptor-expressing cells; read-out: EC50
recorded_endpoint: EC50

Some solved cases for reference:
[[record]]
molecule = "N#Cc1ccc(COc2cccc(-c3ccc(Cc4nc5ccc(C(=O)O)cc5n4C[C@@H]4CCO4)c(F)c3F)n2)c(F)c1"
recorded_endpoint = "EC50"
endpoint_value = "< 3.2 nM"

[[record]]
molecule = "O=C(O)c1ccc2nc(Cc3cc(F)c(-c4cccc(OCc5ccc(Cl)cc5F)n4)cc3F)n(CC3CCCO3)c2c1 (stereo not drawn)"
recorded_endpoint = "EC50"
endpoint_value = "< 3.2 nM"


Continue with the next molecule.
Query: Field request: EC50 | item: N#Cc1ccc(COc2cccc(-c3cc(F)c(Cc4nc5ccc(C(=O)O)cc5n4C[C@@H]4CCCO4)cc3F)n2)c(F)c1
Response: < 3.2 nM

----------
molecular target: human GLP-1 receptor (Homo sapiens, UniProt P43220); construct: host or cells: CHO-K1; experiment: cAMP activity test (cAMP dynamic HTRF kit) in CHO-K1/GLP-1 receptor-expressing cells; format: cell-based; conditions: cAMP activity, CHO-K1/GLP-1 receptor-expressing cells; read-out: EC50
We label by threshold. Values of EC50 strictly beneath 70 nM are 1 (yes). Values of 70 nM and up are 0 (no).

Use these answered entries as a reference point.
[[record]]
compound = "N#Cc1ccc(COc2cccc(-c3ccc(Cc4nc5ccc(C(=O)O)cc5n4CC4CCCO4)c(F)c3)c2)c(F)c1 (stereo not drawn)"
tested_target = "human GLP-1 receptor (Homo sapiens, UniProt P43220)"
class_name = "0 (no)"

[[record]]
compound = "O=C(O)c1ccc2nc(Cc3ccc(-c4cccc(OCc5ccc(C(F)(F)F)cc5)n4)c(F)c3)n(CC3CCCO3)c2c1 (stereo not drawn)"
tested_target = "human GLP-1 receptor (Homo sapiens, UniProt P43220)"
class_name = "1 (yes)"

[[record]]
compound = "COCCn1c(Cc2ccc(-c3cccc(OCc4ccc(Cl)cc4F)n3)cc2[N+](=O)[O-])nc2ccc(C(=O)O)cc21"
tested_target = "human GLP-1 receptor (Homo sapiens, UniProt P43220)"
class_name = "0 (no)"

[[record]]
compound = "O=C(O)c1ccc2nc(Cn3cnc(-c4cccc(OCc5ccc(Cl)cc5F)n4)cc3=O)n(CC3CCCO3)c2c1 (stereo not drawn)"
tested_target = "human GLP-1 receptor (Homo sapiens, UniProt P43220)"
class_name = "0 (no)"

[[record]]
compound = "COCCn1c(Cn2ccc(-c3cccc(OCc4ccc(C#N)cc4F)c3)cc2=O)nc2ccc(C(=O)O)cc21"
tested_target = "human GLP-1 receptor (Homo sapiens, UniProt P43220)"
class_name = "0 (no)"

[[record]]
compound = "O=C(O)c1ccc2nc(Cc3ccc(-c4cccc(OCc5c(F)cccc5Cl)n4)c(F)c3)n(C[C@@H]3CCO3)c2c1"
tested_target = "human GLP-1 receptor (Homo sapiens, UniProt P43220)"
class_name = "0 (no)"

[[record]]
compound = "N#Cc1ccc(COc2cccc(-c3ccc(Cc4nc5ccc(C(=O)O)cc5n4CC4CCCO4)c(F)c3)n2)c(F)c1 (stereo not drawn)"
tested_target = "human GLP-1 receptor (Homo sapiens, UniProt P43220)"
class_name = "1 (yes)"

[[record]]
compound = "O=C(O)c1ccc2nc(Cc3ccc(-c4cccc(OCc5ccc(F)c(F)c5)n4)c(F)c3)n(C[C@@H]3CCO3)c2c1"
tested_target = "human GLP-1 receptor (Homo sapiens, UniProt P43220)"
class_name = "1 (yes)"

[[record]]
compound = "COCCn1c(Cc2ccc(-c3cccc(OCc4ccc(C#N)cc4F)n3)cc2C)nc2ccc(C(=O)O)cc21"
tested_target = "human GLP-1 receptor (Homo sapiens, UniProt P43220)"
class_name = "0 (no)"

[[record]]
compound = "O=C(O)c1ccc2nc(Cc3c(F)cc(-c4cccc(OCc5ccc(Cl)cc5F)n4)cc3F)n(C[C@@H]3CCO3)c2c1"
tested_target = "human GLP-1 receptor (Homo sapiens, UniProt P43220)"
class_name = "1 (yes)"


Query: Determine whether this compound shows EC50 lower than 70 nM (ties excluded): CCn1cncc1Cn1c(Cc2ccc(-c3cccc(OCc4ccc(Cl)cc4F)n3)cc2F)nc2ccc(C(=O)O)cc21
Response: 1 (yes)
